Data origin: paper PMC9482650

target-of-assay: DLG4_3, P78352
Sequence (P78352 306-403): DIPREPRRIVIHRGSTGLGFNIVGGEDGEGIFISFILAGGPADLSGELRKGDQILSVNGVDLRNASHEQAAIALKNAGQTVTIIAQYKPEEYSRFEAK
experimental-protocol: holdup assay
Design: key: below the threshold = too weak to quantify, mostly under pKd 3.1 to 4
run-conditions: plain residues with an end cap or a label only (N-terminal biotin on a linker: ado-ado)
assay-endpoint: pKd

* LSEFKAMDSI [CTNNA1, P35221] | below the threshold
* QHKTQLQTLI [BPIFA2, Q96DR5] | 3.72
* GQEEQVTTRL [TRPC5, Q9UL62] | below the threshold
